B1: CDC25A (parent)
chain: QLIDPDENKENEAFEFKKPVRPVS

Variants of: B1
test: protein stability index of a GFP-peptide fusion (GPS, HEK-293T) (PSI 1-6); higher = more stable;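 also: lentivirally expressed fusions sorted by FACS into six bins by GFP to DsRed ratio, PSI derived from sequencing read proportions per bin multiplied by bin number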
condition details: c terminus: a fixed tail appended
value kind: protein stability index

What value of protein stability index has been recorded for this entry: K9P
4.62

What value of protein stability index has been recorded for this entry: L2Q
4.41

What value of protein stability index has been recorded for this entry: K18W
3.73

What value of protein stability index has been recorded for this entry: S24N
3.34
